- Assay System: MDM2 (Homo sapiens)
- Sequence (Q00987 whole entry): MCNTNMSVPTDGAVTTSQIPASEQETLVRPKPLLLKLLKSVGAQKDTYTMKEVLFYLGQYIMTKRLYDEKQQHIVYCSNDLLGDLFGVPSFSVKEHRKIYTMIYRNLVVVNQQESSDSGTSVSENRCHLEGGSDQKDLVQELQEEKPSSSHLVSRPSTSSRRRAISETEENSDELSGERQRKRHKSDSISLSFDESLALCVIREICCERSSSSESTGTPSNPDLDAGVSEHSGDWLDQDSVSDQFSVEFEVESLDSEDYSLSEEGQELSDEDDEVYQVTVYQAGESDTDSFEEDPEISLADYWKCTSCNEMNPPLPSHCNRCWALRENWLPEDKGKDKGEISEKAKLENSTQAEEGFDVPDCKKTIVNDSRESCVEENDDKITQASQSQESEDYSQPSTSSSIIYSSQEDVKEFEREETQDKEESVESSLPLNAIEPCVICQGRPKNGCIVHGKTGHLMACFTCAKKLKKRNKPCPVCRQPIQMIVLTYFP
- Assay Overview: MDM2 binding assay (fluorescence polarization)
- Condition Label: read-out: Inhibition (200 μM, %), 200 μM compound
Value Type: inhibition at 200 µM (%)
Supply the numeric figure in %, leaving out any unit text.

CC(C)N(C(=O)Cn1c(COc2ccc3ccccc3c2)nc2ccccc21)c1ccccc1
76.3

API: the following record is the query input.
Reported inhibition at 200 µM of `O=c1nc(SCc2nc3ccccc3n2Cc2ccccc2)[nH]c2ccccc12` : 62.4

---

- Tested on: HCT116 (p53 -/-) cells
- Assay Overview: cells
- Type: cell-based, human
- Condition Label: Homo sapiens, HCT-116, 48 h, read-out: IC50 (μM) ± SD HCT116 (p53 -/-)
Below, each entry is listed with its recorded IC50.
Give just the number in µM; leave the unit off.

O=S(=O)(Nc1nc2ccccc2nc1Nc1cccc(O)c1)c1ccc(Cl)cc1
40.8

Continue with the next molecule.
Given item `COc1cccc(OCC(=O)N(Cc2nc(-c3ccccc3)no2)C2CCCCC2)c1` , the value recorded as its IC50 is 24.1
